All values here come from patent US20250163183A1.

Target: human activated protein C (APC) (human, UniProt P04070 43-461)
Sequence (P04070 other isoform, or with tags, fused parts or gaps): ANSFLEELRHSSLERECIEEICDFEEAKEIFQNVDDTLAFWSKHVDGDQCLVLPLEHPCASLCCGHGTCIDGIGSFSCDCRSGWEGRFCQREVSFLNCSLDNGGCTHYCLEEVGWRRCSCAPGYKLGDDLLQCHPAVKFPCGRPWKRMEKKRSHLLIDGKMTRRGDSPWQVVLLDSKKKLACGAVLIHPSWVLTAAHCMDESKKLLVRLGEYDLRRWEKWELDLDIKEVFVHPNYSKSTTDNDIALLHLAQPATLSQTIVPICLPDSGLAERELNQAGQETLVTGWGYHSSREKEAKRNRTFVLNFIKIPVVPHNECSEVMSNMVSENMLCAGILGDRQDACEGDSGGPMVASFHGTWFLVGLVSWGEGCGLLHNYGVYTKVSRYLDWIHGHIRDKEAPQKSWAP
Assay: cell-based or functional assay
MEASURED_PROPERTY: APC plasma T1/2 (min; mean) (min)
Give the quantity in min, number only.

LP2 (SR16983-R2-P3-H10) (VHH, not shown: small tags and cut ends, Llama VHH purified from E. coli periplasm) VHH: QVQLVESGGGLVQAGGSLRLSCAASGRPISAYTWAWFRQAPGKEREFVAAITSSAGTTYYADSVRGRFTISRDNAENTVYLRMNTLKPEDTAVYYCAADDQGDNWYDHWGQGTQVTVSS: 38.2

Name the recorded APC plasma T1/2 (min; mean) of the binder listed here: LP13 (SR16983-R3-P3-G08) (VHH, not shown: small tags and cut ends, Llama VHH purified from E. coli periplasm) VHH: QLQLVESGGGLVQAGGSLRLSCVASGTTFTIEDIGWHRQAPGKQLELVAVSRGGGNADYSDSVKGRFTISRDNAKTTVYLQMSSLKPEDTAVYYCIAKTKATTKWGRGIQVTVSS 67.1
